// provenance: patent US20100279930A1

target: human Y4 receptor (human, UniProt P50391 1-375); test: 125I-PP displacement
Sequence (P50391 whole entry): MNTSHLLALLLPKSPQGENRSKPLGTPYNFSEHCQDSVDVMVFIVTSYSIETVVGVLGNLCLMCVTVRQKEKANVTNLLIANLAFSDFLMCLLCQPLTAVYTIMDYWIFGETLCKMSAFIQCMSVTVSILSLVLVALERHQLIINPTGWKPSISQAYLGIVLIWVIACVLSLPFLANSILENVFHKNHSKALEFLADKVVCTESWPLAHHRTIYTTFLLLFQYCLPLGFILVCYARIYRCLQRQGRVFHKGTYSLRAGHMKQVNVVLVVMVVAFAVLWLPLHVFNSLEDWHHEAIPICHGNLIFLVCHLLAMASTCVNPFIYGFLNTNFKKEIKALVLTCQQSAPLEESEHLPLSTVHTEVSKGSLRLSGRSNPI
pIC50: −log10 of the molar value.
measure: pIC50

Check out these entries, answers already filled in.
[
  {
    "binder": "PLEPVYPGDNATPEQMARYAAELRRYINKLTRPRY [4057159]",
    "measure": "pIC50",
    "value_measured": 10.28
  },
  {
    "binder": "GPLEPEYPGDDATPQQMARYAAELRRYINKLTRPRY [4057276]",
    "measure": "pIC50",
    "value_measured": 10.07
  },
  {
    "binder": "PAPLEPVYPGDNATPEQMAKYAAELRRYINKLTRPRY [4057151]",
    "measure": "pIC50",
    "value_measured": 10.25
  }
]

(A) PAPLEPTYPGDNATPEQLAKYAAELRRYINKLTRPRY [4057440]
(B) PAPLEPVYPGDNATPEQMAHYAAELRRYINKLTRPRY [4057152]
Which record would sort first by descending pIC50, A or B ? Reply with the label of the item you choose.
A
(A: 10.05, B: 9.85)

(a) EPLEPEYPGDDATPQQMARYAAELRRYINKLTRPRY [4057274]
(b) PLEPEYPGDDATPQQMARYAAELRRYINKLTRPRY [4057153]
(c) PAPLEPVYPGDNATPEQDAKYAADLRRYINKLTRPRY [4057147]
Put the items in order so that reported pIC50 rises from first to last. Please express your ranking as an ordered list of the labels.
c, a, b
(c: 9.70, a: 9.99, b: 10.24)

(P) PAPLEPTYPGDDATPEEMAKYAAELRRYINKLTRPRY [4057445]
(Q) PAPLEPVYPGDNATPEQMARYAAELRRYINKLTRPRY [4057162]
Which record would sort first by descending pIC50, P or Q ? Reply with the label of the item you choose.
Q

(1) DPLEPEYPGDDATPQQMARYAAELRRYINKLTRPRY [4057277]
(2) PAPLEPHYPGDNATPEQMAKYAADLRRYINKLTRPRY [4057231]
Please let me know which one, 1 or 2 , has a lower measured pIC50 value. Reply with the label of the item you choose.
1
(1: 10.03, 2: 10.31)
